Experiment: physchem
Description: Dissociation constant, pKa of the compound
REPORTED_PROPERTY: pKa

Fc1c(NC2CC2)nc(C2CC2)nc1N1CCCCCC1 = 6.44
CCc1c(NC2CC2)nc(C2CC2)nc1N1CCSCC1 = 6.78
Fc1c(NC2CC2)nc(C2CC2)nc1N1CCSCC1 = 5.27
Brc1c(NC2CC2)nc(C2CC2)nc1N1CCCCCC1 = 6.21

a = Cc1c(NC2CC2)nc(C2CC2)nc1N1CCSCC1
b = O=[N+]([O-])c1c(NC2CC2)nc(C2CC2)nc1N1CCCCCC1
Query block: Parameter check: reported pKa is higher for which label, a or b ? Select an item and report its label.
Result block: a

###

Conditions: buffer, pH 7.4
REPORTED_PROPERTY: LogK-IAMex

Field: example entries. Status: answers known.
Cc1c(NC2CC2)nc(C2CC2)nc1N1CCC(C)CC1 = 2.8
Cc1c(NC2CC2)nc(C2CC2)nc1N1CCCC1 = 2.36
CCC1CCN(c2nc(C3CC3)nc(NC3CC3)c2C)CC1 = 3.21
Cc1c(NCc2c(F)cccc2F)nc(C2CC2)nc1NC1CC1 = 2.38
Cc1c(NCc2ccccc2)nc(C2CC2)nc1NC1CC1 = 2.36

P = Cc1c(NC2CC2)nc(C2CC2)nc1N1CCCCC1
Q = Cc1c(NC2CC2)nc(C2CC2)nc1N1CCC(O)CC1
Query block: Parameter check: reported LogK-IAMex is higher for which label, P or Q ? Select an item and report its label.
Result block: P

###

Settings: buffer, pH 7.4
REPORTED_PROPERTY: LogK-IAMex

Cc1c(NC2CC2)nc(C2CC2)nc1N1CC=CCC1 = 2.37
Cc1c(NC2CC2)nc(C2CC2)nc1N1CCc2ccccc2C1 = 2.97
Cc1c(NC2CC2)nc(C2CC2)nc1N1CCC(=O)CC1 = 1.35
Cc1c(NC2CCCCCC2)nc(C2CC2)nc1NC1CC1 = 2.98
Cc1c(NC2CC2)nc(C2CC2)nc1N(C)Cc1ccccc1 = 2.7
Cc1c(NC2CC2)nc(C2CC2)nc1N1CCCCCCC1 = 3.05
C=C1CCN(c2nc(C3CC3)nc(NC3CC3)c2C)CC1 = 2.7
Cc1c(NC2CC2)nc(C2CC2)nc1N1CCC(CO)CC1 = 1.57
Cc1c(NC2CCCCC2)nc(C2CC2)nc1NC1CC1 = 2.71

1 = Cc1c(NC2CC2)nc(C2CC2)nc1N1CCSCC1
2 = Cc1c(NC2CC2)nc(C2CC2)nc1N1CCC2(CCCC2)CC1
3 = Cc1c(NC2CC2)nc(C2CC2)nc1N1CCOCC1
Query block: List from greatest to least LogK-IAMex. The labels, placed in the requested order, form the answer.
Result block: 2, 1, 3
(2: 3.66, 1: 2.14, 3: 1.45)

###

Target: Phosphodiesterase 4 (Homo sapiens, UniProt P27815+Q08499+Q07343+Q08493)
Assay type: functional, cell-based
Details: u-937
Description: Inhibition of PDE4 activity in U937 cells
REPORTED_PROPERTY: IC50 (µM)

Field: example entries. Status: answers known.
Cc1c(NCc2ccccc2)nc(C2CC2)nc1NC1CC1 = 4
Cc1c(NC2CC2)nc(C2CC2)nc1N1CCCCCCC1 = 1.6
Cc1c(NC2CC2)nc(C2CC2)nc1N1CCc2ccccc2C1 = 0.5

A = CCC1CCN(c2nc(C3CC3)nc(NC3CC3)c2C)CC1
B = COc1c(NC2CC2)nc(C2CC2)nc1N1CCSCC1
C = Cc1c(NC2CC2)nc(C2CC2)nc1N1CCC(F)(F)CC1
Query block: Sort ascending by IC50. The labels, placed in the requested order, form the answer.
Result block: C, A, B
(C: 0.4 µM, A: 0.63 µM, B: 2.5 µM)

A = Cc1c(NC2CC2)nc(C2CC2)nc1N1CCCCC1
B = Cc1c(NC2CCCCC2)nc(C2CC2)nc1NC1CC1
Query block: Parameter check: reported IC50 is higher for which label, A or B ? Select an item and report its label.
Result block: B
(B: 2.5 µM, A: 0.5 µM)

I = Cc1c(NC2CC2)nc(C2CC2)nc1N1CC2CCC(C2)C1
II = C[C@@H]1C[C@H]1c1nc(NC2CC2)cc(N2CCCCCC2)n1
Query block: Parameter check: reported IC50 is higher for which label, I or II ? Select an item and report its label.
Result block: II
(II: 2.5 µM, I: 0.5 µM)

1 = Cc1c(NC2CC2)nc(C2CC2)nc1N1CCC(CO)CC1
2 = Cc1c(NCCc2cccs2)nc(C2CC2)nc1NC1CC1
Query block: Parameter check: reported IC50 is higher for which label, 1 or 2 ? Select an item and report its label.
Result block: 2
(2: 2.5 µM, 1: 0.63 µM)
